These entries and their values trace back to the supplement of paper PMC3545927.

assayed target: furin, P09958;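 note: purified furin at 1:10 enzyme:substrate in 50 mM HEPES pH 7.5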
Sequence (P09958 whole entry): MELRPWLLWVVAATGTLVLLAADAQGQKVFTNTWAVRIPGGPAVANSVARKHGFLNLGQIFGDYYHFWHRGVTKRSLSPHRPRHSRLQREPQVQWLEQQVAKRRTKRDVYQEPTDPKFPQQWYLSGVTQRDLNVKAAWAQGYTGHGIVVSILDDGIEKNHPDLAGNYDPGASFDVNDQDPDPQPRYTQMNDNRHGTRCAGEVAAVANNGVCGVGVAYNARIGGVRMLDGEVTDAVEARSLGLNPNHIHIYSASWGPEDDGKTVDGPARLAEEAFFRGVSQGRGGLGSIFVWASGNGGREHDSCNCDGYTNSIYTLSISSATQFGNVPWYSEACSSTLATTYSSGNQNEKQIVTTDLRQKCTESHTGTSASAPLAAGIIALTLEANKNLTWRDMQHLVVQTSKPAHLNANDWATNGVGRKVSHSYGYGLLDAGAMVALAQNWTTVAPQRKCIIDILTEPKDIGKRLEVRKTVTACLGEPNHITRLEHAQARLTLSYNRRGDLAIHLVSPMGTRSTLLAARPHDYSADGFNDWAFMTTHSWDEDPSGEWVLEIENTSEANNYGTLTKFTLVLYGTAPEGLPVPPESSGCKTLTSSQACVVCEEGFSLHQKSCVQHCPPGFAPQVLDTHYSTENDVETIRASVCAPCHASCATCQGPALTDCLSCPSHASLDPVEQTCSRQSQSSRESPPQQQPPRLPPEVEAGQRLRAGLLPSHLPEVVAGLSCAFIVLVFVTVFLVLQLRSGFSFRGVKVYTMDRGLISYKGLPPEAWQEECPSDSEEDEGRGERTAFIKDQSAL
protocol description: furin cleavage Z-score vs untreated control; higher = more cleavage, active = 3.5 or more, inactive = 1 or less, 8 variable residues between constant flanks
condition: 15 min
The list shows a part of the results. How many sequences the whole screen found active is unknown.
Decide by furin cleavage Z-score: equal to or exceeding -0.6 means yes, less means no.

Look over these answered cases.
Can CARPERGPRGAGNASASA [FS-1264] be said to have furin cleavage Z-score at or above -0.6?
yes

In plain terms: is recorded furin cleavage Z-score at least -0.6 for CALLTRIPGFAGNASASA [FS-3146] ?
yes

Continuing:
hey, is furin cleavage Z-score for this one >= -0.6? CARSKRDEKLAGNASASA [FS-2810]
yes
